- MEASUREMENT_TARGET: human alpha-synuclein monomer (human, UniProt P37840 1-140)
- ASSAY_TEXT: SPR (Biacore 8K), IgG captured on anti-human Fc, aSyn monomer injected;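 also: aSyn injected as a dilution series, signal corrected against a reference cell holding an irrelevant IgG, Kd from one-to-one Langmuir kinetic fitting of kon and koff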
pKd: −log10 of the molar value.
The entries below are paired with their reported pKd.
MEASURED_METRIC: pKd

| BINDER | VALUE_OBSERVED |
| --- | --- |
| HC2_LC2 (antibody, V domains shown, humanized 20H4 IgG) VH: EVQLVESGGGLVQPGGSLRLSCAASGFTFSNAAMYWVRQAPGKGLELVSRIRTKPNNYATYHADSVKGRFTISRDNSKNTLYLQMNSLRAEDTAVYYCTADMATGDYWGQGTLVTVSS VL: DIQMTQSPSSLSASVGDRVTITCKASQNINKNLDWYQQKPGKAPKPLIYSTNNLQTGVPSRFSGSGSGTDFTLTISSLQPEDFATYYCYQYKSAWTFGQGTKVEIK | 8.40 |
| H2_6_LC2 (antibody, V domains shown) VH: EVQLVESGGGLVQPGGSLRLSCAASGFTFSNAAMYWVRQAPGKGLELVSRIRTKPKNYATYHADSVKGRFTISRDNSKNTLYLQMNSLRAEDTAVYYCTADMATGDYWGQGTLVTVSS VL: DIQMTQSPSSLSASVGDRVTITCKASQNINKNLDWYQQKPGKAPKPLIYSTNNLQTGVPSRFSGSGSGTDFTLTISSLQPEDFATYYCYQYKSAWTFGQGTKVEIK | 8.11 |
| H3_6_LC2 (antibody, V domains shown) VH: EVQLVESGGGLVQPGGSLRLSCAASGFTFSNAAMYWVRQAPGKGLELVSRIRTKPNNYATYHADSVKGRFTISRDNSKNTLYLQMNSLRAEDTAVYYCTANMRKGDYWGQGTLVTVSS VL: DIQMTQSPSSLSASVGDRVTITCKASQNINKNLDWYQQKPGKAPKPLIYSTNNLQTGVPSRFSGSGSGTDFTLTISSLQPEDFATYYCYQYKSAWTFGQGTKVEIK | 7.99 |
